# TEST_DESCRIPTION: in vitro
# REPORTED_CONDITIONS: human, Caco-2, pH 7.4
# Papp B→A at 60 min, 10 µM per record follows
READOUT_KIND: Papp B→A at 60 min, 10 µM (×10⁻⁶ cm/s)

MOLECULE: CNCC(O)c1ccccc1 (stereo not drawn) [Halostachine, halostachine]
VAL: 10.3
//
MOLECULE: NCCc1ccccc1 [Phenethylamine, phenethylamine]
VAL: 1.95
//
MOLECULE: CN(C)CCc1ccc(O)cc1 [Hordenine, hordenine]
VAL: 11.2
//
MOLECULE: COCCc1ccc(OCC(O)CNC(C)C)cc1 (stereo not drawn) [Metoprolol, metoprolol, reference compound]
VAL: 9.25
//
MOLECULE: CN(C)CCc1ccccc1 [Dimethylphenethylamine, N,N-dimethylphenethylamine]
VAL: 13.1
//
MOLECULE: NCCc1ccc(O)cc1 [Tyramine, tyramine]
VAL: 1.13
//
MOLECULE: CNC(C)C(O)c1ccc(O)cc1 (stereo not drawn) [Methylsynephrine]
VAL: 0.39
//
MOLECULE: Oc1ccc(CC2NCCc3cc(O)c(O)cc32)cc1 (stereo not drawn) [Higenamine, higenamine]
VAL: 0.0612
//
MOLECULE: CNCC(O)c1ccc(O)cc1 (stereo not drawn) [p-Synephrine, Synephrine]
VAL: 0.22
//
MOLECULE: CC(CN)c1ccccc1 (stereo not drawn) [β-Methylphenethylamine, β-methylphenethylamine]
VAL: 12.1
//
MOLECULE: NCC(O)c1ccc(O)cc1 (stereo not drawn) [p-Octopamine, octopamine]
VAL: 0.117
//
MOLECULE: CC(C)NCC(O)c1ccc(O)cc1 (stereo not drawn) [Isopropyloctopamine, isopropyloctopamine]
VAL: 0.652

====

Listing: microsomal CLint at 1 µM of selected compounds
# TEST_DESCRIPTION: In vitro hepatic clearance by human liver S9 (compound depletion)
# Format: in vitro ADME
# REPORTED_CONDITIONS: human, s9, pH 7.4, human liver S9 with co-factor mix (NADPH, UDPGA, PAPS, SAM), 1 µM; read-out: In vitro CLint app
# Method: In vitro intrinsic hepatic clearance (CLint) values of the phenethylamine analogues were determined in experiments with pooled human liver S9 (HLS9; Corning, Woburn, MA, USA and Gibco, USA), by measuring the rate of compound depletion. […] After determining the PEA (analogue) amount at the different time points, the CLint was calculated. […] The half-life (t1/2 in minutes) was calculated by: ln (2)/k (in 1/min). […] Finally, CLint could be calculated by: CLintμL/min/mg protein=VμL/mg protein∗ln2/t1/2min. […]

COMPOUND: CC(C)NCC(O)c1ccc(O)cc1 (centres unmarked)
microsomal CLint at 1 µM [µL/min/mg]: 2.15
--
COMPOUND: CNCC(O)c1ccc(O)cc1 (centres unmarked) [p-Synephrine, Synephrine]
microsomal CLint at 1 µM [µL/min/mg]: 11.9
--
COMPOUND: CC(CN)c1ccccc1 (centres unmarked)
microsomal CLint at 1 µM [µL/min/mg]: 12.1
--
COMPOUND: CN(C)CCc1ccc(O)cc1
microsomal CLint at 1 µM [µL/min/mg]: 2.2
--
COMPOUND: Oc1ccc(CC2NCCc3cc(O)c(O)cc32)cc1 (centres unmarked)
microsomal CLint at 1 µM [µL/min/mg]: 22
